procedure-details: Rat 28-day GLP repeat dose PO study (toxicokinetics)
Format: in vivo
recorded-conditions: male, rat, in vivo, po, 2000 mg/kg, Day 28, M, 2000 mg/kg PO; read-out: V/F (Vss/F)
Counter-ions that a name gives are not always drawn.
measured-quantity: Vd/F (L/kg)

INSERT INTO results (compound, value_observed) VALUES
  ('CC1(C)SC(Nc2ccccc2O)=N[C@@H]1C(=O)O [Compound 1, mono-hydrochloride]', 14.1);

====

procedure-details: Rat 28-day GLP repeat dose PO study (toxicokinetics)
Type: in vivo
recorded-conditions: male, rat, in vivo, po, 2000 mg/kg, Day 1, M, 2000 mg/kg PO
Counter-ions that a name gives are not always drawn.
measured-quantity: AUC (µg·h/mL)

INSERT INTO results (compound, value_observed) VALUES
  ('CC1(C)SC(Nc2ccccc2O)=N[C@@H]1C(=O)O [Compound 1, mono-hydrochloride]', 768);

Provenance of the data: patent US20200246316A1
